# System: Escherichia coli ATCC 25922
# Format: cell-based
# measurement-parameters: ATCC 25922
Positions of bridges follow the written chain, without caps; N, C: chain ends. Non-standard residues stand in square brackets, D forms with d. Residues, ends and D or L forms follow the SMILES beside them. *: point of attachment. Octanoyl(7-Me) = CC(C)CCCCCC(=O)*; dOrn = NCCC[C@@H](N)C(=O)O; Orn = NCCC[C@H](N)C(=O)O
Below, each entry is listed with its recorded Minimum inhibitory concentration (MIC).
quantity: Minimum inhibitory concentration (MIC) (µg/mL)

compound="CC[C@H](C)[C@H](NC(=O)[C@@H](NC(=O)[C@H](Cc1c[nH]c2ccccc12)NC(=O)[C@@H](CCCN)NC(=O)CNC(=O)[C@H](CCCN)NC(=O)[C@@H](CCCN)NC(=O)[C@@H](Cc1c[nH]c2ccccc12)NC(=O)[C@@H](Cc1ccc(O)cc1)NC(=O)[C@@H](CO)NC(=O)CCCCCC(C)C)[C@@H](C)O)C(=O)N[C@@H](CC(N)=O)C(=O)NCC(N)=O [ΔG13, FA-sywoOGoWTING-CONH2] ({Octanoyl(7-Me)}-[dS][dY][dW][dOrn][Orn]G[dOrn]WTING-NH2)" output_unit=µg/mL recorded_measurement=2
compound="CC[C@H](C)[C@@H]1NC(=O)[C@@H](NC(=O)[C@H](Cc2c[nH]c3ccccc23)NC(=O)[C@@H](CCCN)NC(=O)CNC(=O)[C@H](CCCN)NC(=O)[C@@H](CCCN)NC(=O)[C@@H](Cc2c[nH]c3ccccc23)NC(=O)[C@@H](Cc2ccc(O)cc2)NC(=O)[C@@H](CO)NC(C)=O)[C@@H](C)OC(=O)CNC(=O)CNC(=O)[C@H](CC(N)=O)NC1=O [Compound C2] (Ac-[dS][dY][dW][dOrn][Orn]G[dOrn]WTINGG; ester 9-C)" output_unit=µg/mL recorded_measurement=16
